# assayed system: RIPK1 recombination protein (Homo sapiens (Human), UniProt Q13546)
# Sequence (Q13546 other isoform, or with tags, fused parts or gaps): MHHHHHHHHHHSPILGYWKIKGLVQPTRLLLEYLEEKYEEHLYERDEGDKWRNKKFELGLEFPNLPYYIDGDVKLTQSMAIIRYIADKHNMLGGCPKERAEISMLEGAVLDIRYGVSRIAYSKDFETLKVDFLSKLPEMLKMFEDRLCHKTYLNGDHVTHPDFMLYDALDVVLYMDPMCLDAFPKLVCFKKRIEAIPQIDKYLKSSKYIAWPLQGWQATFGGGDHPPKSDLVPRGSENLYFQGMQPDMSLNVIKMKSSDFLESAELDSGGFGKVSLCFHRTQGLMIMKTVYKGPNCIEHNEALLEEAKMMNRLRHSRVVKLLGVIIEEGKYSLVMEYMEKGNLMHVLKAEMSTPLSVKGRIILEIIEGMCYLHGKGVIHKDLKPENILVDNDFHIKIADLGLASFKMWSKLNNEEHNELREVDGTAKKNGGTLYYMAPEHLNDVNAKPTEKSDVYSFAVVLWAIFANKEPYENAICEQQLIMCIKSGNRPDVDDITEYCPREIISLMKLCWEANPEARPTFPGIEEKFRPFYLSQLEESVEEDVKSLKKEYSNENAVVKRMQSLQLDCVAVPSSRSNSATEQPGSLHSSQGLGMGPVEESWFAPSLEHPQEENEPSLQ
# experimental protocol: RIPK1 kinase activity assay (ADP-Glo)
# setup conditions: RIPK1 kinase activity, ADP-Glo, 10 μM ATP
Rule: measured IC50 below 50 nM gets 1; anything equal to or greater than 50 nM gets 0.

Observe how each entry below is paired with its result.
CC(C)n1ncc2cnc(C(=O)NC3(c4ccc(-c5cncn([C@H]6C[C@H](F)C6)c5=O)cc4)CC3)nc21 :: 1
CC(C)n1ncc2cnc(C(=O)NC3(c4ccc(-c5cncn(C)c5=O)cn4)CC3)nc21 :: 0
CC(C)n1ncc2cnc(C(=O)NC3(c4ccc(-c5cncn(C)c5=O)c(Cl)c4)CC3)nc21 :: 0
Cn1cncc(-c2ccc(C3(NC(=O)c4nnc(Cc5ccccc5)o4)CC3)cc2)c1=O :: 1
CC(C)n1cncc(-c2ccc(C3(NC(=O)c4ncc5cnn(C6COC6)c5n4)CC3)cc2)c1=O :: 0

# strict comparison: is reported IC50 < 50 nM? input = `CC(C)Cn1cncc(-c2ccc(C3(NC(=O)c4ncc5cnn(C(C)C)c5n4)CC3)cc2)c1=O` 1

# strict comparison: is reported IC50 < 50 nM? input = `C[C@@H](c1ccccc1)n1cnc(C(=O)NC2(c3ccc(-c4cncn(C)c4=O)cc3)CC2)n1` 0

---

# assayed system: RIPK1 recombination protein (Homo sapiens (Human))
# experimental protocol: RIPK1 kinase activity assay (ADP-Glo)
# setup conditions: RIPK1 kinase activity, ADP-Glo, 10 μM ATP
Rule: measured IC50 below 40 nM gets 1; anything equal to or greater than 40 nM gets 0.

Observe how each entry below is paired with its result.
CC(C)n1cncc(-c2ccc(C3(NC(=O)c4ncc5cnn(C(C)C6CC6)c5n4)CC3)cc2)c1=O (racemic) :: 1
CC(C)n1ncc2cnc(C(=O)NC3(c4ccc(-c5cncn([C@H](C)C(F)(F)F)c5=O)cc4F)CC3)nc21 (stereo in doubt) :: 1
C[C@H](c1ccccc1)c1nnc(C(=O)NC2(c3ccc(-c4cncn(C)c4=O)cc3)CC2)[nH]1 :: 0

# strict comparison: is reported IC50 < 40 nM? input = `CC(C)n1cncc(-c2ccc(C3(NC(=O)c4ncc5cnn(-c6ccccc6)c5n4)CC3)cc2)c1=O` 0

# strict comparison: is reported IC50 < 40 nM? input = `CC[C@@H](C)n1cncc(-c2ccc(C3(NC(=O)c4ncc5cnn(C(C)C)c5n4)CC3)cc2)c1=O` 1

# strict comparison: is reported IC50 < 40 nM? input = `Cn1cncc(-c2ccc(C3(NC(=O)c4ncn(Cc5ccccc5)n4)CC3)cc2)c1=O` 1

# strict comparison: is reported IC50 < 40 nM? input = `CC(C)n1cncc(-c2ccc(C3(NC(=O)c4ncc5cnn(C(C)C)c5n4)CC3)cc2)c1=O` 1

# strict comparison: is reported IC50 < 40 nM? input = `CC(C)n1ncc2cnc(C(=O)NC3(c4ccc(-c5cncn(CC6CC6)c5=O)c(F)c4F)CC3)nc21` 1

# strict comparison: is reported IC50 < 40 nM? input = `CC(C)n1cncc(-c2ccc(C3(NC(=O)c4ncn(Cc5ccccc5)n4)CC3)cc2)c1=O` 1

# strict comparison: is reported IC50 < 40 nM? input = `CC(C)n1cncc(-c2cc(F)c(C3(NC(=O)c4ncc5cnn(C(C)C)c5n4)CC3)c(F)c2)c1=O` 0
